- system_name: Histamine H2 receptor (Homo sapiens, UniProt P25021); further: assay procedure not described here
- Sequence (P25021 whole entry): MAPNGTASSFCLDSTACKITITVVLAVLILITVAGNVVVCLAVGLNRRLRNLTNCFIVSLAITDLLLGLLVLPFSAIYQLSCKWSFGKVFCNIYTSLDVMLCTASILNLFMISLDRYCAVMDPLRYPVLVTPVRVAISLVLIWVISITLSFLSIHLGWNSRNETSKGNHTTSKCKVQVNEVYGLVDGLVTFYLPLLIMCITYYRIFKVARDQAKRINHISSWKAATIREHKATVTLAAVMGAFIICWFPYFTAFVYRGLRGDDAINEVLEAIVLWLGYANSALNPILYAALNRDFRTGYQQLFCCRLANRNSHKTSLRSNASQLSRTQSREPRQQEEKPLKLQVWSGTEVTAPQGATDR
- Format: functional, cell-based
property: AC50

# input Tell me reported AC50 for COc1ccc([C@@H]2CC(=O)c3c(O)cc(O)cc3O2)cc1O , tested with Histamine H2 receptor (Homo sapiens, UniProt P25021).
# output > 30 µM

# input And O=C1c2cccc3c2[C@H](CCC3)CN1[C@@H]1CN2CCC1CC2 ?
# output > 30 µM

# input Another: C[C@]12CCC(=O)C[C@@H]1CC[C@@H]1[C@@H]2CC[C@]2(C)[C@@H](O)CC[C@@H]12
# output > 30 µM

# input Another compound to check: CC(C)(O/N=C(\C(=O)N[C@@H]1C(=O)N2C(C(=O)[O-])=C(C[n+]3ccccc3)CS[C@H]12)c1csc(N)n1)C(=O)O
# output > 30 µM

Give one value of AC50 per listed compound.
1. CC/C=C\C/C=C\C/C=C\C/C=C\C/C=C\CCCC(=O)OCC
2. O=c1c(O)c(-c2ccc(O)c(O)c2)oc2cc(O)cc(O)c12
3. CC(CN(C)C)C(C)(O)Cc1ccc(Cl)cc1 (centres undefined)
4. CN(CCOc1ccc(CC2SC(=O)NC2=O)cc1)c1ccccn1 (centres undefined)
5. CCc1nc(N)nc(N)c1-c1ccc(Cl)cc1

# output
> 30 µM
> 30 µM
> 10 µM
> 30 µM
> 30 µM

---

- system_name: Gamma-aminobutyric acid receptor subunit alpha-1 (Rattus norvegicus, UniProt P62813); further: assay procedure not described here
- Sequence (P62813 whole entry): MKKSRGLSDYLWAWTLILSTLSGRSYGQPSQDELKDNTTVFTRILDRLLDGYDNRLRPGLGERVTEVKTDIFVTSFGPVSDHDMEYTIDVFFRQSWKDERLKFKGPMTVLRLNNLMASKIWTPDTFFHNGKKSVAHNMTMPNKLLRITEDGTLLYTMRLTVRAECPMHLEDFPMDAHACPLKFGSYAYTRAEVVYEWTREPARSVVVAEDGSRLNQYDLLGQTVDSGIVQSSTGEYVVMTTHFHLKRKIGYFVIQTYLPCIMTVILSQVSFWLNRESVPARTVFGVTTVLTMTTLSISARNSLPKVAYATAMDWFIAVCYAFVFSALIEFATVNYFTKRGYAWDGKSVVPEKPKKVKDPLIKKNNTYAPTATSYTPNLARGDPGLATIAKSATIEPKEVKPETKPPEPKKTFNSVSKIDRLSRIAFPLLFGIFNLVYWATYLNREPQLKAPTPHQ
- Format: functional
property: AC50

Here's what some known entries look like.
# input I'm curious: which AC50 was measured for C[C@@H]1C[C@H]2[C@@H]3CCC4=CC(=O)C=C[C@]4(C)[C@@]3(F)[C@@H](O)C[C@]2(C)[C@@]1(O)C(=O)CO [DEXAMETHASONE] tested on Gamma-aminobutyric acid receptor subunit alpha-1 (Rattus norvegicus, UniProt P62813)?; further: assay procedure not described here
# output > 10 µM

# input Same for CCC1(c2ccc(N)cc2)CCC(=O)NC1=O (stereo not drawn) [AMINOGLUTETHIMIDE]
# output > 30 µM

# input Now the compound O=C(O)Cc1ccccc1Nc1c(Cl)cccc1Cl [DICLOFENAC]
# output > 10 µM

# input Field entry: Cc1ccccc1N1C(=O)c2cc(S(N)(=O)=O)c(Cl)cc2NC1C (stereo not drawn) [METOLAZONE]
# output > 10 µM

# input Lookup COc1cc(C)c(/C=C/C(C)=C/C=C/C(C)=C/C(=O)O)c(C)c1C [ACITRETIN]
# output > 10 µM

# input Now consider Cc1nnc(SCC2=C(C(=O)O)N3C(=O)[C@@H](NC(=O)Cn4cnnn4)[C@H]3SC2)s1 [CEFAZOLIN] .
# output > 300 µM

# input Same question, C[C@]12C/C(=C/O)C(=O)C[C@@H]1CC[C@@H]1[C@@H]2CC[C@@]2(C)[C@H]1CC[C@]2(C)O [OXYMETHOLONE] this time
# output > 30 µM

Further cases:
# input Tell me reported AC50 for C[N+](C)(C)CCOP(=O)([O-])OC[C@H](O)CO , tested with Gamma-aminobutyric acid receptor subunit alpha-1 (Rattus norvegicus, UniProt P62813).
# output > 30 µM

---

- system_name: Alpha-1A adrenergic receptor (Homo sapiens); further: assay procedure not described here
- Sequence (P35348 whole entry): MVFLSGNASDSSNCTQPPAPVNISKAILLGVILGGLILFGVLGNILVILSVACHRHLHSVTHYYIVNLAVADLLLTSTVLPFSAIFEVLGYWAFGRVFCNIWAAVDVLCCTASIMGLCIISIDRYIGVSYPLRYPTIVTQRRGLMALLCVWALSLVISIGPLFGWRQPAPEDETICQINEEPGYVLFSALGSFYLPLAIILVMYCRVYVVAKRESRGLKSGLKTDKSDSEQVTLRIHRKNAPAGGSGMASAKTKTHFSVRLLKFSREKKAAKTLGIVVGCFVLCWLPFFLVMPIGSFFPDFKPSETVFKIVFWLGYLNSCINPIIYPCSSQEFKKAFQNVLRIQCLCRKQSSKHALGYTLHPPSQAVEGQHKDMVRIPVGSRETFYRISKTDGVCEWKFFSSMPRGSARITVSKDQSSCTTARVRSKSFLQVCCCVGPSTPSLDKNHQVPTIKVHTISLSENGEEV
- Assay type: functional, cell-based
property: AC50

For every item in the list below, what is its measured AC50?
1. CCCN1CCCC[C@H]1C(=O)Nc1c(C)cccc1C [ROPIVACAINE]
2. CC=CC1=C(C(=O)O)N2C(=O)[C@@H](NC(=O)[C@H](N)c3ccc(O)cc3)[C@H]2SC1 [CEFPROZIL]
3. O=S1(=O)CCN(CN2CCS(=O)(=O)NC2)CN1 [TAUROLIDINE]
4. C[C@]12C=CC(=O)C=C1CC[C@@H]1[C@@H]2CC[C@]2(C)OC(=O)CC[C@@H]12 [TESTOLACTONE]

# output
["> 30 µM", "> 30 µM", "> 30 µM", "> 30 µM"]

I need AC50 for every entry listed below, if you could help.
1. CN(C)C/C=C/C(=O)Nc1cc2c(Nc3ccc(F)c(Cl)c3)ncnc2cc1O[C@H]1CCOC1 [AFATINIB]
2. Cc1nc(Nc2ncc(C(=O)Nc3c(C)cccc3Cl)s2)cc(N2CCN(CCO)CC2)n1 [DASATINIB]
3. Cc1nnc(SCC2=C(C(=O)O)N3C(=O)[C@@H](NC(=O)Cn4cnnn4)[C@H]3SC2)s1 [CEFAZOLIN]
4. CCC(=O)O[C@](Cc1ccccc1)(c1ccccc1)[C@H](C)CN(C)C [PROPOXYPHENE]
5. O=C(O)Cc1ccccc1Oc1ccc(Cl)cc1Cl [FENCLOFENAC]
6. CCCc1nc2c(C)cc(-c3nc4ccccc4n3C)cc2n1Cc1ccc(-c2ccccc2C(=O)O)cc1
7. NNC(=O)c1ccncc1 [ISONIAZID]
8. CCCNC(=O)NS(=O)(=O)c1ccc(Cl)cc1 [CHLORPROPAMIDE]

# output
1: > 30 µM; 2: 10 µM; 3: > 300 µM; 4: > 30 µM; 5: > 30 µM; 6: 3 µM; 7: > 30 µM; 8: > 30 µM
